# Assay info: ATG_PXRE_CIS: Attagene CIS-FACTORIAL HepG2 Assay for human Pregnane X Receptor Element (PXRE) (AID 2282957)
# Condition parameters: HepG2 Attagene CIS-FACTORIAL PXRE reporter, mRNA; actives raise or lower the signal
The source made the active and inactive calls. How the source made its calls: active means hit-call score of the fitted dose curve at least 0.9, where 1 is the maximum; inactive means score below 0.9.
Outcomes you can answer with include only these: yes = active, no = inactive

For orientation, consider the following solved cases.
# Compound, Cat
rows = [
    ("Nc1nc2ncc(CNc3ccc(C(=O)N[C@@H](CCC(=O)O)C(=O)O)cc3)nc2c(=O)[nH]1", "no"),
    ("CCNc1ccccc1", "yes"),
    ("CC/C(=C\\C(=N/O)C(N)=O)C(C)[N+](=O)[O-] (configuration not stated)", "no"),
    ("COC(=O)c1c(Cl)c(Cl)c(C(=O)OC)c(Cl)c1Cl", "yes"),
]

// param item: Cc1ccc(C)c(O)c1 ; yields the recorded call
no

// param item: O=C(O)CCN(C1(C(=O)NO)CCCC1)S(=O)(=O)c1ccc(Oc2ccc(F)cc2)cc1 ; yields the recorded call
no

// param item: CC(C)=CCCC(C)CCO (configuration not stated) ; yields the recorded call
yes

// param item: O=C1OC(=O)C2C3C=CC(C3)C12 (configuration not stated) ; yields the recorded call
no

// param item: O=C(O)c1cc(N=Nc2ccc(S(=O)(=O)Nc3ccccn3)cc2)ccc1O ; yields the recorded call
no

// param item: CC(C)CCO ; yields the recorded call
no

// param item: CC(C)CCCCCCCOC(=O)CCCCC(=O)OCCCCCCCC(C)C ; yields the recorded call
yes

// param item: CCCCCCCCCCCCCCCO ; yields the recorded call
no

* * *

# Read-out: Vascular cell adhesion molecule 1 (VCAM1), VCAM1 (gene 7412)
# Assay info: BSK_4H_VCAM1: BioMAP Diversity Plus: 4H Assay for Vascular cell adhesion molecule 1 (VCAM1) Biomarker Activity (AID 2283033)
# Condition parameters: primary human endothelial cells (HUVEC); actives raise or lower the signal
Calls of active or inactive are those of the source. How the source made its calls: active means hit-call score of the fitted dose curve at least 0.9, where 1 is the maximum; inactive means score below 0.9.
Outcomes you can answer with include only these: y (active), n (inactive)

For orientation, consider the following solved cases.
# Molecule, Cat
measured = [
    ("CN(C)c1ccc(N=NS(=O)(=O)O)cc1", "y"),
    ("CNCc1ccc(NC(=O)c2c[nH]c3c2C(=O)CCC3)cc1", "n"),
    ("Cc1ccc(O)cc1", "n"),
]

// param item: CCN(C(=O)c1cc(C)cc(OC[C@H](C)Nc2ccncc2)c1)C(C)C ; yields the recorded call
n

// param item: CCCCC(CC)COC(=O)CCCCCCCCC(=O)OCC(CC)CCCC (stereo not given) ; yields the recorded call
n

* * *

# Experimental system: Hepatocyte nuclear factor 6 (Homo sapiens)
# Assay info: ATG_HNF6_CIS: Attagene CIS-FACTORIAL HepG2 Assay for human Hepatocyte Nuclear Factor 6 (HNF6) (AID 2282952)
# Condition parameters: HepG2 Attagene cis-factorial HNF6 reporter transcription; actives raise or lower the signal
The source made the active and inactive calls. Rule for the calls: active = hit-call score of the fitted dose curve at least 0.9, where 1 is the maximum; inactive = score below 0.9.
Outcomes you can answer with include only these: t (active), f (inactive)

# Structure string, Cat
data = [
    ("CCCCCCc1ccc(O)cc1O", "f"),
    ("C[C@](N)(Cc1ccc(O)c(O)c1)C(=O)O", "f"),
]

Shift focus to the following entry.
// param item: CC(C)c1cccc(C(C)C)c1N1C(=O)c2ccc(O)cc2C1=O ; yields the recorded call
t

* * *

# Read-out: Human Leukocyte Antigen - DR isotype (HLADR), HLA-DRA (gene 3122)
# Assay info: BSK_CASM3C_HLADR: BioMAP Diversity Plus: CASM3C Assay for Human Leukocyte Antigen - DR isotype (HLADR) Biomarker Activity (AID 2283043);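 further: cell-surface HLA-DR protein level quantified by ELISA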
# Condition parameters: primary human coronary artery smooth muscle cells; actives raise or lower the signal
Active and inactive are the calls of the source. Rule for the calls: active = hit-call score of the fitted dose curve at least 0.9, where 1 is the maximum; inactive = score below 0.9.
Outcomes you can answer with include only these: active, inactive

For orientation, consider the following solved cases.
# Molecule, Cat
data = [
    ("Cn1c(=O)cc(Oc2ccc(F)cc2F)c2cnc(NCC(C)(C)O)nc21", "active"),
    ("CC(C)(O)c1coc(S(=O)(=O)NC(=O)Nc2c3c(cc4c2CCC4)CCC3)c1", "inactive"),
    ("Cc1ccc(N)cc1O", "inactive"),
    ("CC(C)=CCC/C(C)=C/CO", "inactive"),
    ("CCCCCCc1ccc(O)cc1O", "inactive"),
]

// param item: CC1=CC(=O)CC(C)(C)C1 ; yields the recorded call
inactive

// param item: O=c1[nH]c2ccc(S(=O)CCN3CCC(Cc4ccc(F)cc4)CC3)cc2o1 (stereo not given) ; yields the recorded call
inactive

* * *

# Assay info: APR_HepG2_StressKinase_72hr: Apredica 72-hour HepG2 Assay for Stress Kinase (AID 2282921)
# Condition parameters: HepG2 stress kinase (phospho-c-Jun) imaging, actives raise or lower the signal
# Procedure: APR_HepG2_72hr is a cell-based, multiplexed-readout assay that uses HepG2, a human liver cell line, with measurements taken at 72 hours after chemical dosing in a 384-well plate.APR_HepG2_StressKinase_72hr is one of 10 assay component(s) measured or calculated from the APR_HepG2_72hr assay. […] This assay endpoint, APR_HepG2_StressKinase_72hr, was analyzed with bidirectional fitting relative to DMSO as the negative control and baseline of activity. […]
Calls of active or inactive are those of the source. How the source made its calls: active means hit-call score of the fitted dose curve at least 0.9, where 1 is the maximum; inactive means score below 0.9.
Outcomes you can answer with include only these: active, inactive

For orientation, consider the following solved cases.
# Compound, Cat
measured = [
    ("Oc1ccc2c(c1)-c1ccccc1C2", "inactive"),
    ("Clc1nc(Cl)c(Cl)c(Cl)c1Cl", "active"),
    ("Cc1ccc(C)c(O)c1", "inactive"),
    ("CNCc1ccc(NC(=O)c2c[nH]c3c2C(=O)CCC3)cc1", "inactive"),
    ("CCCCC(CC)COC(=O)CCCCCCCCC(=O)OCC(CC)CCCC (configuration not stated)", "inactive"),
    ("CN(C)c1ccc(N=NS(=O)(=O)O)cc1", "inactive"),
]

Shift focus to the following entry.
// param item: On1ccccc1=S ; yields the recorded call
active

* * *

# Experimental system: human Retinoid X Receptor beta (RXRb), RXRB (gene 6257) (UniProt P28702)
# Sequence (P28702 whole entry, looked up): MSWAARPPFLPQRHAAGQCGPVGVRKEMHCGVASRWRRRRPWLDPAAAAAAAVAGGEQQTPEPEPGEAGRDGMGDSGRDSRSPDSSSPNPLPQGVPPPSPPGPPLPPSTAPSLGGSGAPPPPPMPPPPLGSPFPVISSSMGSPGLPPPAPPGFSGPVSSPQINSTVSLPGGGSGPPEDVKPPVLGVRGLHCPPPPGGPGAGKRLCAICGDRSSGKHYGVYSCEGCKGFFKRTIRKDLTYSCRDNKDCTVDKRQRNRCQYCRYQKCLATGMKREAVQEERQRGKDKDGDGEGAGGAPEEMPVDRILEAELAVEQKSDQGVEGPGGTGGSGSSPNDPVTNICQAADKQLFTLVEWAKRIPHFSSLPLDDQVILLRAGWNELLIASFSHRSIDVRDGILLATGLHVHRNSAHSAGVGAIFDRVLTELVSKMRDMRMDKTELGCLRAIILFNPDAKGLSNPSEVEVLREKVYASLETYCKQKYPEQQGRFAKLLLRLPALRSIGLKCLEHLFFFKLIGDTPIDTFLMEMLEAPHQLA
# Assay info: ATG_RXRb_TRANS: Attagene TRANS-FACTORIAL HepG2 Assay for human Retinoid X Receptor beta (RXRb) (AID 2283013)
Records with an inconclusive call do not appear. Activity calls are given as the source filed them. The calls were made as follows: active = hit-call score of the fitted dose curve at least 0.9, where 1 is the maximum; inconclusive = response in the unintended direction; inactive = score below 0.9.
Outcomes you can answer with include only these: Yes (active), No (inactive)

For orientation, consider the following solved cases.
# Molecule, Cat
measured = [
    ("C1=CCCC=CCCC=CCC1", "Yes"),
    ("O=C(NS(=O)(=O)/C=C/c1ccccc1)c1ccc(F)cc1Cl", "No"),
    ("CCCN(C1CCN(C(=O)C2CCNCC2)CC1)[C@@H]1CCc2ccc(OC)cc2C1", "No"),
    ("Cn1c(=O)c2c(ncn2C)n(C)c1=O", "No"),
    ("O=C1OC(=O)C2C3C=CC(C3)C12 (centres undefined)", "No"),
    ("CCCCCCCCCCCCc1ccccc1", "Yes"),
    ("COc1ccc2sc(C(=O)Nc3nnn[nH]3)c(OC(C)C)c2c1", "No"),
    ("O=C(OC[C@H]1O[C@@H](OC(=O)c2cc(O)c(O)c(OC(=O)c3cc(O)c(O)c(O)c3)c2)[C@H](OC(=O)c2cc(O)c(O)c(OC(=O)c3cc(O)c(O)c(O)c3)c2)[C@@H](OC(=O)c2cc(O)c(O)c(OC(=O)c3cc(O)c(O)c(O)c3)c2)[C@@H]1OC(=O)c1cc(O)c(O)c(OC(=O)c2cc(O)c(O)c(O)c2)c1)c1cc(O)c(O)c(OC(=O)c2cc(O)c(O)c(O)c2)c1", "No"),
]

Shift focus to the following entry.
// param item: Cn1cnc([N+](=O)[O-])c1Sc1ncnc2nc[nH]c12 ; yields the recorded call
No

* * *

# Read-out: Vascular cell adhesion molecule 1 (VCAM1), VCAM1 (gene 7412)
# Assay info: BSK_4H_VCAM1: BioMAP Diversity Plus: 4H Assay for Vascular cell adhesion molecule 1 (VCAM1) Biomarker Activity (AID 2283033)
# Condition parameters: primary human endothelial cells (HUVEC); actives raise or lower the signal
Calls of active or inactive are those of the source. The calls were made as follows: active = hit-call score of the fitted dose curve at least 0.9, where 1 is the maximum; inactive = score below 0.9.
Outcomes you can answer with include only these: Y (active), N (inactive)

For orientation, consider the following solved cases.
# Compound, Cat
rows = [
    ("CCn1nc(Cc2ccccc2)cc1C1CCN(C[C@H]2C[C@H](N(C)[C@@H](C(=O)O)C(C)C)C[C@@H]2c2cccc(F)c2)CC1", "N"),
    ("COCCOCCOCCOC", "N"),
]

// param item: Oc1ccc2c(c1)-c1ccccc1C2 ; yields the recorded call
N

// param item: CCOC(=O)c1ccc(C2CCC(NC[C@H](O)COc3ccc(O)c(NS(C)(=O)=O)c3)CC2)cc1 (some centres not stated) ; yields the recorded call
N

// param item: On1ccccc1=S ; yields the recorded call
Y

// param item: C[C@](N)(Cc1ccc(O)c(O)c1)C(=O)O ; yields the recorded call
N

// param item: Clc1nc(Cl)c(Cl)c(Cl)c1Cl ; yields the recorded call
Y

// param item: CCCCC(CC)COC(=O)c1ccc(C(=O)OCC(CC)CCCC)cc1 (configuration not stated) ; yields the recorded call
N

// param item: CCC(C)(C)C(=O)O[C@H]1C[C@@H](C)C=C2C=C[C@H](C)[C@H](CC[C@@H]3C[C@@H](O)CC(=O)O3)[C@H]21 ; yields the recorded call
Y

// param item: O=C(OC[C@H]1O[C@@H](OC(=O)c2cc(O)c(O)c(OC(=O)c3cc(O)c(O)c(O)c3)c2)[C@H](OC(=O)c2cc(O)c(O)c(OC(=O)c3cc(O)c(O)c(O)c3)c2)[C@@H](OC(=O)c2cc(O)c(O)c(OC(=O)c3cc(O)c(O)c(O)c3)c2)[C@@H]1OC(=O)c1cc(O)c(O)c(OC(=O)c2cc(O)c(O)c(O)c2)c1)c1cc(O)c(O)c(OC(=O)c2cc(O)c(O)c(O)c2)c1 ; yields the recorded call
Y

// param item: CC(C)CCCCCCOC(=O)c1ccc(C(=O)OCCCCCCC(C)C)c(C(=O)OCCCCCCC(C)C)c1 ; yields the recorded call
N

// param item: Nc1ccc(Nc2ccccc2)cc1 ; yields the recorded call
Y
